Provenance of the data: PubChem BioAssay AID248

test system: L1210 leukemia ip in BDF1 mice, survival T/C; experiment: NCI In Vivo Anticancer Drug Screen. Data for tumor model L1210 Leukemia (intraperitoneal) in B6D2F1 (BDF1) mice; conditions: endpoint: mean survival time; dose: 400.0 mg/kg/injection; schedule: Q01DX001 (ip); vehicle: saline with Tween-80
Toxic doses and inconclusive results are not listed. No stated cut-off is given here; in the data, active means T/C of 150% or more; inactive means T/C below 125%.
Outcomes: class 1 for active, class 0 for inactive

{"columns": ["compound", "assigned_class"],
 "data": [
  ["CC(=O)NC1C(OC(=O)c2ccccc2)OC2COCOC2C1OC(=O)c1ccccc1 (configuration not stated)", "class 0"],
  ["CC(Cc1ccccc1)C(=O)c1ccccc1 (configuration not stated)", "class 0"],
  ["O=c1ccc([N+](=O)[O-])cn1Cc1ccccc1", "class 0"],
  ["O=C1C=C(c2ccccc2)C(O)(c2ccccc2)O1 (configuration not stated)", "class 0"],
  ["Nc1ncnc(N)c1NC(=O)c1cccc(-c2ccccc2)c1", "class 0"],
  ["CC(C)(NC(=O)N(CCCl)N=O)C(=O)O", "class 1"],
  ["CCOC(=O)c1[nH]c(C)c(C(=O)OCC)c1-c1ccccc1", "class 0"],
  ["Cc1cc(Cl)ccc1OC(=O)Nc1ccccc1Cl", "class 0"],
  ["CC(=O)n1c2c(n(C(C)=O)c1=O)CCCC2", "class 0"],
  ["CCc1ccccc1NC(=O)Oc1ccc(SC)cc1", "class 0"],
  ["CCCCCCCCCCC1CC2CCCC3CCC4CCCC1C4C32 (configuration not stated)", "class 0"],
  ["COc1ccc(-c2sc(/N=C/c3ccc(N(C)CCC#N)cc3)c(C#N)c2C)cc1OC", "class 0"]
]}

====

tested on: L1210 leukemia ip in BDF1 mice, survival T/C; test: NCI In Vivo Anticancer Drug Screen. Data for tumor model L1210 Leukemia (intraperitoneal) in B6D2F1 (BDF1) mice; conditions: endpoint: mean survival time; dose: 100.0 mg/kg/injection; schedule: Q01DX001 (ip); vehicle: other; higher = longer survival
Inconclusive results and toxic doses are left out.
Below, each entry is listed alongside its reported T/C.
quantity_name: T/C

{"columns": ["compound", "reported_value"],
 "data": [
  ["O=C(O)/C(Cc1cn[nH]n1)=N\\O", "95 % of control"],
  ["CCCCCCCC[Si](c1ccc(C)cc1)(c1ccc(C)cc1)c1ccc(C)cc1", "97 % of control"],
  ["CN(N=O)C(=O)N[C@@H](C=O)[C@@H](O)[C@H](O)[C@H](O)CO", "103 % of control"],
  ["CCCCCCCCCCCCCCCCCC(=O)OCC1OC(OC2(COC(=O)CCCCCCCCCCCCCCCCC)OC(COC(=O)CCCCCCCCCCCCCCCCC)C(OC(=O)CCCCCCCCCCCCCCCCC)C2OC(=O)CCCCCCCCCCCCCCCCC)C(OC(=O)CCCCCCCCCCCCCCCCC)C(OC(=O)CCCCCCCCCCCCCCCCC)C1OC(=O)CCCCCCCCCCCCCCCCC (stereo not given)", "93 % of control"],
  ["CC(=O)OC1COC(n2cnc3c(=S)nc[nH]c32)C(OC(C)=O)C1OC(C)=O (stereo not given)", "107 % of control"]
]}

====

Tested on: L1210 leukemia ip in BDF1 mice, survival T/C
Test: NCI In Vivo Anticancer Drug Screen. Data for tumor model L1210 Leukemia (intraperitoneal) in B6D2F1 (BDF1) mice
Conditions: endpoint: mean survival time; dose: 400.0 mg/kg/injection; schedule: Q01DX001 (ip); vehicle: carboxymethylcellulose (CMC); higher = longer survival
Protocol: The antitumor activity of compounds was measured in mice bearing transplantable tumors. Survival or tumor size were measured and the results are expressed as the measurement made in the treated group (T) divided by the measurement made in the vehicle treated control group (C). The tumor model used in this assay is L1210 Leukemia (intraperitoneal) in B6D2F1 (BDF1) mice
Toxic doses and inconclusive results are not listed.

{"columns": ["compound", "measured_on", "T/C"],
 "data": [
  ["CCOC(=O)NC(/C=C/c1ccccc1)NC(=O)OCC", "L1210 leukemia ip in BDF1 mice, survival T/C", "95 % of control"],
  ["CC(=O)C1(O)CCC2C3CC=C4CC(O)CCC4(C)C3CCC21C (configuration not stated)", "L1210 leukemia ip in BDF1 mice, survival T/C", "98 % of control"],
  ["CCS(=O)(=O)c1ccc(NC(=O)Oc2cc(C)ccc2C(C)C)cc1", "L1210 leukemia ip in BDF1 mice, survival T/C", "94 % of control"],
  ["CCCCCCCCCCCCCCCCS(=O)(=O)N/N=C/c1ccc(Cl)cc1Cl", "L1210 leukemia ip in BDF1 mice, survival T/C", "107 % of control"],
  ["O=S1(=O)OC(c2ccccc2)(c2ccccc2)c2ccccc21", "L1210 leukemia ip in BDF1 mice, survival T/C", "100 % of control"],
  ["Nc1cccc2c1[nH]c(=O)c1ccccc12", "L1210 leukemia ip in BDF1 mice, survival T/C", "97 % of control"],
  ["Cc1cccc(NC(=O)Nc2cccc(C(F)(F)F)c2)c1", "L1210 leukemia ip in BDF1 mice, survival T/C", "97 % of control"],
  ["O=C(Cc1ccccc1)OC1CC2CC1C1CCCC21 (configuration not stated)", "L1210 leukemia ip in BDF1 mice, survival T/C", "96 % of control"],
  ["S=P(NCCCCCCCNP(=S)(N1CC1)N1CC1)(N1CC1)N1CC1", "L1210 leukemia ip in BDF1 mice, survival T/C", "104 % of control"],
  ["CN(C)C=Nc1ccc(F)cc1", "L1210 leukemia ip in BDF1 mice, survival T/C", "105 % of control"],
  ["C=CCSc1ccc([N+](=O)[O-])cc1", "L1210 leukemia ip in BDF1 mice, survival T/C", "98 % of control"],
  ["Cc1ccccc1-c1nc2c(N)nc(N)nc2nc1N", "L1210 leukemia ip in BDF1 mice, survival T/C", "98 % of control"]
]}
